Where these numbers come from: paper PMC5607274

# key: entry, value: First screening IR (inhibition rate)
molecular target: human recombinant Yes [a.a. 2–543 (end)] (Homo sapiens, UniProt P07947); construct: human recombinant Yes [a.a; 2–543 (end)]; purchased BPS Bioscience 40488; assay: ADP-Glo kinase assay, inhibition rates of Yes phosphorylation activity (first and second screening); assay type: biochemical; conditions: first screening; mean of n = 4 wells; 10 μmol L−1 compound
Sequence (P07947 2-543): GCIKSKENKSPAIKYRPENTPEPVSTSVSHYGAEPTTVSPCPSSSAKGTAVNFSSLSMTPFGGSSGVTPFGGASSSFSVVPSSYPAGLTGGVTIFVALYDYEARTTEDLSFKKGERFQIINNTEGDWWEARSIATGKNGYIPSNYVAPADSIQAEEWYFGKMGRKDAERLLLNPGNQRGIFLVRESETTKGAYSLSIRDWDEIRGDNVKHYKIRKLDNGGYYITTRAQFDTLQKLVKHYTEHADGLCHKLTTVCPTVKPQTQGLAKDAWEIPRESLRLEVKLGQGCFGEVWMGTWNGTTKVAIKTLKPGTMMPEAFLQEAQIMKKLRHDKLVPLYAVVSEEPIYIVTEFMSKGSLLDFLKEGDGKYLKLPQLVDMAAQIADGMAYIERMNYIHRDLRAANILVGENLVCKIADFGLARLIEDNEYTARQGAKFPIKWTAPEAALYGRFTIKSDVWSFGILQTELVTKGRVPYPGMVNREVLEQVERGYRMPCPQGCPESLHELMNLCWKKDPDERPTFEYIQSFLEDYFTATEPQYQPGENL
Reply with just the number (in %).

compound	tested target	First screening IR (inhibition rate) / %
CC(=O)N1CC=C(c2ccc(Oc3nc(-c4cccnc4)nc4ccccc34)cc2)CC1 [Compound Z196157908]	human recombinant Yes [a.a. 2–543 (end)] (Homo sapiens, UniProt P07947)	-13
Cc1ccc(Nc2ncnc3sc4c(c23)CCCC4)c(O)c1 [Compound Z85929120]	human recombinant Yes [a.a. 2–543 (end)] (Homo sapiens, UniProt P07947)	2
Cc1[nH]c(=O)[nH]c(=O)c1CCC(=O)N1CCC(CCc2ccccc2)CC1 [Compound Z219953062]	human recombinant Yes [a.a. 2–543 (end)] (Homo sapiens, UniProt P07947)	4

In the following, a different compound is considered.
Prompt line: Consider the compound shown here: Cc1ccc(CNc2nc(-c3ccc(O)c(C(N)=O)c3)cs2)cc1 [Compound Z48851233] What is its recorded First screening IR (inhibition rate)?
Response line: 10

====

target: human recombinant Yes [a.a. 2–543 (end)] (Homo sapiens, UniProt P07947); construct: human recombinant Yes [a.a; 2–543 (end)]; purchased BPS Bioscience 40488; experiment: ADP-Glo kinase assay, inhibition rates of Yes phosphorylation activity (first and second screening); assay type: biochemical; settings: first screening; mean of n = 4 wells; 10 μmol L−1 compound
value type: First screening IR (inhibition rate) (%)
Reply with just the number (in %).

compound	tested target	reading
Cc1cccnc1NC(=O)c1ccc(CSc2ccccc2)cc1 [Compound Z58490632]	human recombinant Yes [a.a. 2–543 (end)] (Homo sapiens, UniProt P07947)	-1
CN(C1CCCCC1)S(=O)(=O)N1CCS(=O)(=O)CC1 [Compound Z1082836720]	human recombinant Yes [a.a. 2–543 (end)] (Homo sapiens, UniProt P07947)	-4
CCCN(CCC)S(=O)(=O)c1cccc(S(N)(=O)=O)c1 [Compound Z237751694]	human recombinant Yes [a.a. 2–543 (end)] (Homo sapiens, UniProt P07947)	-9
Cc1cc(C)n(-c2nc(-c3cccnc3)nc3ccccc23)n1 [Compound Z56839033]	human recombinant Yes [a.a. 2–543 (end)] (Homo sapiens, UniProt P07947)	12

Prompt line: Consider the compound shown here: O=C(c1cccn1Cc1ccncc1)N1CCOC(c2ccc(F)cc2)C1 (stereo not drawn) [Compound Z998371530] What is its recorded First screening IR (inhibition rate)?
Response line: 13

Prompt line: Consider the compound shown here: O=C(O)c1cccc(N/N=C/c2ccc(N(c3ccccc3)c3ccccc3)cc2)c1 [Compound Z49584790] What is its recorded First screening IR (inhibition rate)?
Response line: 18

Prompt line: Consider the compound shown here: CCc1cc(CNC(=O)NCc2ccc3cc(OC)ccc3c2)on1 [Compound Z1256754058] What is its recorded First screening IR (inhibition rate)?
Response line: -8

Prompt line: Consider the compound shown here: Cc1nn(C)c2sc(C(=O)NC3CCN(C(=O)C(C)(C)C)CC3)cc12 [Compound Z421731088] What is its recorded First screening IR (inhibition rate)?
Response line: 3

Prompt line: Consider the compound shown here: CCCCN(C1CCS(=O)(=O)C1)S(C)(=O)=O (stereo not drawn) [Compound Z237523250] What is its recorded First screening IR (inhibition rate)?
Response line: -21

Prompt line: Consider the compound shown here: CN(C)S(=O)(=O)CCCS(=O)(=O)c1nccn1C [Compound Z1134191724] What is its recorded First screening IR (inhibition rate)?
Response line: 22

Prompt line: Consider the compound shown here: CCn1ncc2c(C(=O)NCc3cc(OC)c(OC)cc3OC)cc(-c3ccccc3)nc21 [Compound Z224953910] What is its recorded First screening IR (inhibition rate)?
Response line: 2

Prompt line: Consider the compound shown here: Cc1cccc(-c2nn(-c3ccccc3)cc2C(=O)N(C)CC(=O)Nc2ccc(N3CCOCC3)cc2)c1 [Compound Z26593505] What is its recorded First screening IR (inhibition rate)?
Response line: 2

Prompt line: Consider the compound shown here: N#Cc1cnc(N2CCN(S(=O)(=O)c3cc(Cl)ccc3Cl)CC2)c(Cl)c1 [Compound Z1039059796] What is its recorded First screening IR (inhibition rate)?
Response line: 0

Prompt line: Consider the compound shown here: Cc1cc(NCC(O)COc2ccc(F)cc2)nc2ccccc12 (stereo not drawn) [Compound Z815806580] What is its recorded First screening IR (inhibition rate)?
Response line: -15

Prompt line: Consider the compound shown here: C=CCn1c(=O)c2ccccc2n2c(SCC(=O)Nc3ccc(N4CCN(C)CC4)cn3)nnc12 [Compound Z432326346] What is its recorded First screening IR (inhibition rate)?
Response line: 8

Prompt line: Consider the compound shown here: Cc1nn(CC(C)C)c2sc(C(=O)N3c4ccccc4C[C@H]3C(N)=O)cc12 [Compound Z996487836] What is its recorded First screening IR (inhibition rate)?
Response line: 1

Prompt line: Consider the compound shown here: FC(F)(F)c1ccnc(Nc2ccc(NCc3ccccn3)cc2)n1 [Compound Z1192169075] What is its recorded First screening IR (inhibition rate)?
Response line: 39

Prompt line: Consider the compound shown here: O=C(CCC1NC(=O)NC1=O)Nc1ccc(Oc2ccccc2Cl)cc1 (stereo not drawn) [Compound Z168726218] What is its recorded First screening IR (inhibition rate)?
Response line: 11

Prompt line: Consider the compound shown here: O=C(CCNC(=O)c1ccco1)Nc1ccc2nc(N3CCCC3)sc2c1 [Compound Z226430254] What is its recorded First screening IR (inhibition rate)?
Response line: 3

Prompt line: Consider the compound shown here: Cc1ccc(SCc2nc(N)nc(Nc3ccccc3C)n2)cc1C [Compound Z24835676] What is its recorded First screening IR (inhibition rate)?
Response line: -13

Prompt line: Consider the compound shown here: CN(Cc1ccc(OC(F)F)cc1)C(=O)CN1C(=O)NC(C)(c2ccccc2Br)C1=O (stereo not drawn) [Compound Z14158957] What is its recorded First screening IR (inhibition rate)?
Response line: 23

Prompt line: Consider the compound shown here: CN(C)c1ccc(/C=c2/s/c(=C/C(=O)C(C)(C)C)[nH]c2=O)cc1 [Compound Z46615661] What is its recorded First screening IR (inhibition rate)?
Response line: -8

Prompt line: Consider the compound shown here: O=S1(=O)CCC(CNS(=O)(=O)c2c[nH]c3nccc(Cl)c23)C1 (stereo not drawn) [Compound Z1547285504] What is its recorded First screening IR (inhibition rate)?
Response line: -14
